Test system: MDA-MB-231
Assay: Cell cycle arrest in human MDA-MB-231 cells assessed as accumulation at sub-G0 phase at 10 uM measured after 24 hrs by propidium iodide staining based flow cytometry (reference value: 3%)
Assay type: functional
Active and inactive are the calls of the source. No cut-off for these calls is given here.
METRIC: Activity

CC(=O)c1cc2c(o1)-c1ccccc1C(=O)C2=O	inactive
O=C1C(=O)c2ccoc2-c2ccccc21	inactive
CC1(C)CCC2=C(O1)c1ccccc1C(=O)C2=O [LAPACHONE]	3%
CC(=O)c1cc2c(o1)C(=O)c1ccccc1C2=O [NAPABUCASIN]	4%

###

I'd appreciate it if you could supply Activity values for the items below.
System: MDA-MB-231
Test: Cell cycle arrest in human MDA-MB-231 cells assessed as accumulation at S phase at 3 uM measured after 24 hrs by propidium iodide staining based flow cytometry (reference value: 12%)
Assay type: functional
All answers are understood in %, so give the number only.

What Activity value was documented for this compound, O=C1C(=O)c2ccoc2-c2ccccc21 ?
15

Try this compound too: CC1(C)CCC2=C(O1)c1ccccc1C(=O)C2=O
14

Same for CC(=O)c1cc2c(o1)C(=O)c1ccccc1C2=O
15

Another compound to check: CC(=O)c1cc2c(o1)-c1ccccc1C(=O)C2=O
13

###

Biological target: UniProt:P40763
Sequence (P40763 whole entry): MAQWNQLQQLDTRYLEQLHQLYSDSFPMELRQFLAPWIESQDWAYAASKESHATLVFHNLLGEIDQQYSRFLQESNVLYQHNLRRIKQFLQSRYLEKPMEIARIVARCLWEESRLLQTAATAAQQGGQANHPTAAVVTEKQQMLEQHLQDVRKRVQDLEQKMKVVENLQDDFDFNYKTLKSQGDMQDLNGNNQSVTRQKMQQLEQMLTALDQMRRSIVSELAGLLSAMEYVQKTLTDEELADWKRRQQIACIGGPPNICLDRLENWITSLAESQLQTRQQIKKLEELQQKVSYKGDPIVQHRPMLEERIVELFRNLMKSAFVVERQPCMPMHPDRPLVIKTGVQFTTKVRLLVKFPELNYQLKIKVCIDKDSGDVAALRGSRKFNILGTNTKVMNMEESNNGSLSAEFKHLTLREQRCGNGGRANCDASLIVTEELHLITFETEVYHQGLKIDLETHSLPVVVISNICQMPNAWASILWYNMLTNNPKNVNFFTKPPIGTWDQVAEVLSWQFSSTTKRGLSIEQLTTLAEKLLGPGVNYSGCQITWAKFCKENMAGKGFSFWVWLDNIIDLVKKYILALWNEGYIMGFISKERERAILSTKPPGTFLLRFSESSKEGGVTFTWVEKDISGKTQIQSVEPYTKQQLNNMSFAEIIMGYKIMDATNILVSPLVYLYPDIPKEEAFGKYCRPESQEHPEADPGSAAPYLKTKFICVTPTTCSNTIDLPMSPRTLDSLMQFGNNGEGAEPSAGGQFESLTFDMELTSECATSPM
Test: Inhibition of STAT3 phosphorylation at Y705 in human MDA-MB-231 cells assessed as reduction in ratio of phosphorylated STAT3 to total STAT3 level after 4 hrs by HTRF assay
Format: cell-based
For each record, write down the corresponding EC50.
The response must be a number in nM with no trailing unit.

What does the data say about its EC50? Entry: CC(=O)c1cc2c(o1)-c1ccccc1C(=O)C2=O
800

Then CC(=O)c1cc2c(o1)C(=O)c1ccccc1C2=O ?
1900

###

Give measured Activity for each item. Keep answers brief.
System: MDA-MB-231
Assay: Cell cycle arrest in human MDA-MB-231 cells assessed as accumulation at G2 phase at 3 uM measured after 24 hrs by propidium iodide staining based flow cytometry (reference value: 23%)
Assay type: functional
# output: bare number, implied unit %

Consider the molecule CC(=O)c1cc2c(o1)C(=O)c1ccccc1C2=O and give its measured Activity.
25

Same again, this time with O=C1C(=O)c2ccoc2-c2ccccc21
25

One more molecule: CC(=O)c1cc2c(o1)-c1ccccc1C(=O)C2=O
23

And for CC1(C)CCC2=C(O1)c1ccccc1C(=O)C2=O ?
21

###

Kindly state Activity for each of the entries shown.
System: MDA-MB-231
Assay: Cell cycle arrest in human MDA-MB-231 cells assessed as accumulation at sub-G0 phase at 3 uM measured after 24 hrs by propidium iodide staining based flow cytometry (reference value: 3%)
Assay type: functional

Suppose we examine the compound CC1(C)CCC2=C(O1)c1ccccc1C(=O)C2=O [LAPACHONE] ; what Activity value has been reported?
3%

Now the compound CC(=O)c1cc2c(o1)C(=O)c1ccccc1C2=O [NAPABUCASIN]
5%

Proceed to CC(=O)c1cc2c(o1)-c1ccccc1C(=O)C2=O
5%

###

Test system: MDA-MB-231
Assay: Cell cycle arrest in human MDA-MB-231 cells assessed as accumulation at G1 phase at 3 uM measured after 24 hrs by propidium iodide staining based flow cytometry (reference value: 62%)
Type: functional
METRIC: Activity (%)
Give your result in % as a bare value.

Lab note: need Activity for CC(=O)c1cc2c(o1)C(=O)c1ccccc1C2=O on MDA-MB-231, anyone have it?
56

And the next one, CC1(C)CCC2=C(O1)c1ccccc1C(=O)C2=O ?
63

Try O=C1C(=O)c2ccoc2-c2ccccc21 next.
59

Try CC(=O)c1cc2c(o1)-c1ccccc1C(=O)C2=O next.
59

###

Tested on: MDA-MB-231
Assay: Cell cycle arrest in human MDA-MB-231 cells assessed as accumulation at G2 phase at 10 uM measured after 24 hrs by propidium iodide staining based flow cytometry (reference value: 23%)
Format: functional
Provide the recorded Activity for the entries that follow.
The response must be a number in % with no trailing unit.

# returns recorded Activity (system: MDA-MB-231) for CC1(C)CCC2=C(O1)c1ccccc1C(=O)C2=O
27

Next: CC(=O)c1cc2c(o1)C(=O)c1ccccc1C2=O
26

Also CC(=O)c1cc2c(o1)-c1ccccc1C(=O)C2=O ?
20

Same read-out for O=C1C(=O)c2ccoc2-c2ccccc21 ?
24

Value source: ChEMBL document CHEMBL4145650
